System: MS2 coat protein
Experiment: apparent KD of MS2 coat protein, switch ON state; designed switch direction (-1 OFF switch, 1 ON switch): -1; higher = weaker reporter binding
Settings: FMN input: 0 or 200 uM; Eterna round: R93 (includes R88 designs)
Please use class 1 whenever apparent KD of MS2 coat protein is not below 0.03 µM, and class 0 whenever it is.

Previously resolved entries follow.
residues	answerLabel
AAAAUGUGAGGAUAUGUACGAAAAAAUAAAAAAAUAAAAGUACAGAAGGCACAUGAGGAUCACCCAUGUGUGGG [EX4 400: Minimal 13]	class 1
AAAAAACAUGAGGAUCACCCAUGUGAGGAUAUGCUAAAAAAAAUAAAAAUAAAACAUAGCAGAAGGCACACCAA [Amethyst 57]	class 0
AACAGGACAGGAUAUACAUGAGGAUCACCCAUGUAGGAAUUAAGCAGAGUACCACACAGUAGAAGGGUCAUGGA [Ruby 26]	class 0
AAAAAACAUGAGGAUCACCCAUGUAAGGAUAUGCAAAAAAUGGGUAAAAGGGUAAAAAGCAGAAGGUACAAAAA [scarecrow1]	class 1
AAAAAGGGAGGAUAUACAACACAGACAGAACAACAAACACAACAUGAGGAUCACCCAUGUAGAAGGCCCAAAAA [Default title]	class 0
CGCAAGUCAGGAUAUUCGACAAGUAAAUCAGUAGAUCAAAAGAAGAAGGGACAUGAGGAUCACCCAUGUAAAUA [JR_Exc004_Sub403]	class 1

Now for a further sequence.
Is reported apparent KD of MS2 coat protein greater than or equal to 0.03 µM here: AAGAAAGGAGGAUAUACAUGAGGAUCACCCAUGUAAAAGAAAGAAAAGGGAAAGAAAAGUAGAAGGCCUAAGAA [Usermaatre-meryamun Ramesses III] class 1
